B1: LINE1-full (parent)
chain: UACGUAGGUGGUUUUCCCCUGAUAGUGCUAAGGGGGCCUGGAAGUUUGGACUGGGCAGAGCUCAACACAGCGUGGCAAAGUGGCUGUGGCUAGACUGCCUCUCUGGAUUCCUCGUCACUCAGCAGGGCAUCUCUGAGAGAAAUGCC

variants of: B1; test: self-cleavage, relative activity (ratio to wild type); higher = more cleavage; in vitro, sequencing; the parent is a self-cleaving ribozyme
Assignment: determine reported self-cleavage for the given variants.
Write no unit; give the number alone.

Value of self-cleavage reported for the variant A77U U91C is 0.6

Value of self-cleavage reported for the variant A6G U39A is 0.6

Value of self-cleavage reported for the variant C3U A22U is 0.99

Value of self-cleavage reported for the variant G55C A57U is 0.02

Value of self-cleavage reported for the variant A79C U91A is 0.94

Value of self-cleavage reported for the variant U12A A141U is 0.64

Value of self-cleavage reported for the variant A22U A67G is 0.41

Value of self-cleavage reported for the variant C37G U87C is 0.2

Value of self-cleavage reported for the variant U20A C38A is 1.01

Value of self-cleavage reported for the variant A77U U130G is 1.86

Value of self-cleavage reported for the variant U47A A64U is 0.44

Value of self-cleavage reported for the variant C3A A142G is 0.82

Value of self-cleavage reported for the variant G32A A138G is 1.16

Numbers sourced from the RNAGym collection of RNA variant scans (doi:10.7554/elife.90254).
